Each recorded value in this set is attributed to the supplement of paper PMC11451515.

# cell viability annotations
# System: NOMO1
# Assay info: cell viability relative to DMSO control; higher = less cytotoxic
# Study conditions: RPMI 5 mM glucose + 10% dialyzed FBS; 48 h; 0.19 µM
Give the number; % is assumed, so skip it.

Consider the reported cell viability for these molecules:
CCc1cc2c(cc1N1CCC(N3CCOCC3)CC1)C(C)(C)c1[nH]c3cc(C#N)ccc3c1C2=O
133
CC(C)N(C[C@H]1O[C@@H](n2cnc3c(N)ncnc32)[C@H](O)[C@@H]1O)[C@H]1C[C@@H](CCc2nc3cc(C(C)(C)C)ccc3[nH]2)C1
103
O=[N+]([O-])c1ncc[nH]1
82.5

Now consider the entry below.
What value of cell viability has been reported for the following molecule? CC(C)=CCC/C(C)=C/CC/C(C)=C/CC/C(C)=C/CC/C(C)=C/CC/C(C)=C/CC/C(C)=C/CC/C(C)=C/CC/C(C)=C/CO
113

---

# Test system: P12-Ichikawa
# Assay info: cell viability relative to DMSO control; higher = less cytotoxic
# Study conditions: RPMI 5 mM glucose + 10% dialyzed FBS; 48 h; 0.000781 µM
Response field label: string, one of Satisfied (cell viability strictly below 90%) or Not satisfied.

CC[N+](CC)(CC)CCOc1cccc(OCC[N+](CC)(CC)CC)c1OCC[N+](CC)(CC)CC
Not satisfied
C[C@H](CCC(=O)O)[C@H]1CCC2C3C[C@H](O)[C@@H]4C[C@H](O)CC[C@]4(C)C3CC[C@@]21C (some centres not stated)
Not satisfied
CC\12CCC(=O)\C=C1CCC3C2CCC4(C)C3CCC4(O)C#C (configuration not stated)
Satisfied

Please determine if CC[C@@H]1[C@@H](C)O[C@@](O)([C@@H](C)[C@H](O)[C@H](C)[C@H]2OC(=O)/C=C/C=C/[C@H](C)[C@@H]([C@@H](C)[C@@H](O)[C@H](C)[C@@]3(O)C[C@@H](O[C@H]4C[C@H](O)[C@H](O)[C@H](C)O4)[C@H](CC)[C@@H](C)O3)OC(=O)/C=C/C=C/[C@@H]2C)C[C@H]1O[C@H]1C[C@H](O)[C@H](O)[C@H](C)O1 is below 90% in terms of cell viability.
Not satisfied

Please determine if CCN(CC)CCOc1ccc(Cc2ccccc2)cc1 is below 90% in terms of cell viability.
Satisfied

Please determine if CCN(CCO)CCCOc1ccc2c(Nc3cc(CC(=O)Nc4cccc(F)c4)[nH]n3)ncnc2c1 is below 90% in terms of cell viability.
Not satisfied

Please determine if COc1cccc2c1C(=O)c1c(O)c3c(c(O)c1C2=O)C[C@@](O)(C(=O)CO)C[C@@H]3O[C@H]1C[C@H](N)[C@H](O[C@H]2CCCCO2)[C@H](C)O1 is below 90% in terms of cell viability.
Not satisfied

Please determine if O=C(O)CCCCC(CCSCc1ccccc1)SCc1ccccc1 (configuration not stated) is below 90% in terms of cell viability.
Not satisfied

Please determine if O=C(CCCCCCC(=O)Nc1cccnc1)NO is below 90% in terms of cell viability.
Satisfied

Please determine if O=C(CS(=O)Cc1ccco1)NC/C=C\COc1cc(CN2CCCCC2)ccn1 (configuration not stated) is below 90% in terms of cell viability.
Satisfied

Please determine if C[C@@H]1CCN(C(=O)CC#N)C[C@@H]1N(C)c1ncnc2[nH]ccc12 is below 90% in terms of cell viability.
Satisfied

---

# Test system: SEM cells
# Assay info: cell viability relative to DMSO control; higher = less cytotoxic
# Study conditions: HPLM + 10% dialyzed FBS; 48 h; 0.19 µM
Readout name: cell viability (%)
Give the number; % is assumed, so skip it.

Consider the reported cell viability for these compounds:
COc1ccc(C(=O)c2c(C)n(CCN3CCOCC3)c3ccccc23)cc1
105
COc1cc(Nc2c(C#N)cnc3cc(OCCCN4CCN(C)CC4)c(OC)cc23)c(Cl)cc1Cl
95
ClC1=CC=C2N/C3=N/C(=O)CN3CC2=C1Cl
119
CC[C@@H]1[C@@H](C)O[C@@](O)([C@@H](C)[C@H](O)[C@H](C)[C@H]2OC(=O)/C=C/C=C/[C@H](C)[C@@H]([C@@H](C)[C@@H](O)[C@H](C)[C@@]3(O)C[C@@H](O[C@H]4C[C@H](O)[C@H](O)[C@H](C)O4)[C@H](CC)[C@@H](C)O3)OC(=O)/C=C/C=C/[C@@H]2C)C[C@H]1O[C@H]1C[C@H](O)[C@H](O)[C@H](C)O1
113
OC1=CC=C(C=C1)\C2=C\OC3=C(C(=CC(=C3)O)O)C2=O
119
C[C@@H]1CCN(C(=O)CC#N)C[C@@H]1N(C)c1ncnc2[nH]ccc12
77.4

What value of cell viability has been reported for the following compound? O=C1CCC[C@@H]2[C@H]3CCCN4CCC[C@@H](CN12)[C@@H]34
73.2

What value of cell viability has been reported for the following compound? O=C(Nc1c[nH]nc1-c1nc2cc(CN3CCOCC3)ccc2[nH]1)NC1CC1
45.9

What value of cell viability has been reported for the following compound? CC(=O)OC[C@H]1O[C@@H]([S-])[C@H](OC(C)=O)[C@@H](OC(C)=O)[C@@H]1OC(C)=O.CCP(CC)CC.[Au+]
97.6

What value of cell viability has been reported for the following compound? CCc1cc(C(N)=S)ccn1
92.3

What value of cell viability has been reported for the following compound? Cc1nc2cc(C(=O)N3CCC4(CC3)CC(=O)c3c(cnn3C(C)C)C4)ccc2[nH]1
114

---

# Test system: NOMO1
# Assay info: cell viability relative to DMSO control; higher = less cytotoxic
# Study conditions: RPMI 5 mM glucose + 10% dialyzed FBS; 48 h; 0.19 µM
# cell viability annotations
Please make sure the unit comes right after the number.

Consider the reported cell viability for these compounds:
CC1(CN2CCC(n3c(=O)[nH]c4ccccc43)CC2)OCc2ccccc2-n2cccc21 (configuration not stated)
98.2%
CC(=O)N[C@@H]1[C@@H](NC(N)=N)\C=C(/O[C@H]1[C@H](O)[C@H](O)CO)C(O)=O
118%
Cc1nn(C)c(COc2ccc(N3CCN([S+](=O)([O-])N(C)C)CC3)cc2)c1-c1cccc2c(CCCOc3cccc4ccccc34)c(C(=O)O)n(CCN3CCOCC3)c12
111%
OC[C@H]1O[C@H](C[C@@H]1O)N2\C=C(F)/C(=O)NC2=O
46.4%
O=C(CS(=O)Cc1ccco1)NC/C=C\COc1cc(CN2CCCCC2)ccn1 (configuration not stated)
103%

What value of cell viability has been reported for the following compound? NC[C@@H]1O[C@H](O[C@H]2[C@@H](O)[C@H](O[C@@H]3[C@@H](O)[C@H](N)C[C@H](N)[C@H]3O[C@H]3O[C@H](CN)[C@@H](O)[C@H](O)[C@H]3N)O[C@@H]2CO)[C@H](N)[C@@H](O)[C@@H]1O.O=S(=O)(O)O.O=S(=O)(O)O.O=S(=O)(O)O
85.7%

What value of cell viability has been reported for the following compound? CCC[S+](=O)([O-])Nc1ccc(F)c(C(=O)c2c[nH]c3ncc(Cl)cc23)c1F
128%

---

# Test system: SEM cells
# Assay info: cell viability relative to DMSO control; higher = less cytotoxic
# Study conditions: RPMI 5 mM glucose + 10% FBS; 48 h; 46.1 µM
Response field label: string, one of condition met (cell viability strictly below 20%) or condition not met.

Take a look at these entries with their results.
CC[C@@H]1[C@@H](C)O[C@@](O)([C@@H](C)[C@H](O)[C@H](C)[C@H]2OC(=O)/C=C/C=C/[C@H](C)[C@@H]([C@@H](C)[C@@H](O)[C@H](C)[C@@]3(O)C[C@@H](O[C@H]4C[C@H](O)[C@H](O)[C@H](C)O4)[C@H](CC)[C@@H](C)O3)OC(=O)/C=C/C=C/[C@@H]2C)C[C@H]1O[C@H]1C[C@H](O)[C@H](O)[C@H](C)O1
condition met
O=C(CCc1ccc(O)cc1)c1c(O)cc(O)cc1O
condition not met
O=C1\C=C/C=C2/[C@H]3CNC[C@H](C3)CN12
condition not met
N[C@H]2CN(CC12CC1)c3c(F)cc4c(c3Cl)[N@@](C=C(C4=O)C(=O)O)C5C[C@H]5F (some centres not stated)
condition not met
CC(=O)N[C@@H]1[C@@H](NC(N)=N)\C=C(/O[C@H]1[C@H](O)[C@H](O)CO)C(O)=O
condition not met

Please determine if Cc1ccc(C(=O)Nc2cccc(C(F)(F)F)c2)cc1-c1ccc2nc(NCCN3CCOCC3)ncc2c1 is below 20% in terms of cell viability.
condition met

Please determine if C[C@@H](NCCCc1cccc(C(F)(F)F)c1)c1cccc2ccccc12 is below 20% in terms of cell viability.
condition not met

Please determine if CC[S+](=O)([O-])Nc1ccc2c(c1)/C(=C(/Nc1ccc(CN3CCCCC3)cc1)c1ccccc1)C(=O)N2 is below 20% in terms of cell viability.
condition met
